- TARGET SYSTEM: Coagulation factor XI (Homo sapiens)
- PROTOCOL: Inhibition of […] human plasma F11a catalytic domain expressed in Escherichia coli strain BL21(DE3) using D-Leu-Pro-Arg*Rh110-D-Pro as substrate preincubated for 60 mins followed by substrate addition and measured after 60 mins by fluorescence assay
READOUT KIND: IC50 (nM)
Numbers only; they are read as nM.

Use these answered entries as a reference point.
[
  {
    "COMPOUND": "CC(C)c1cc(-c2ccc3c(c2)[C@H](N)CO3)cc([C@@H]2CNc3cccc(CC(=O)O)c3O2)c1",
    "IC50 [nM]": 10
  },
  {
    "COMPOUND": "Cc1cccc(C(=O)O)c1OCCc1cc(-c2ccc3c(c2)[C@H](N)CO3)cc(C(C)C)c1",
    "IC50 [nM]": 6620
  },
  {
    "COMPOUND": "COc1cccc(C(=O)O)c1OCCc1cc(-c2ccc3c(c2)[C@H](N)CO3)cc(C(C)C)c1",
    "IC50 [nM]": 240
  },
  {
    "COMPOUND": "CC1(C)COc2c(COc3ccccc3CC(=O)O)cc(-c3ccc4c(c3)[C@H](N)CO4)cc21",
    "IC50 [nM]": 85
  }
]

Sample CC(C)c1cc(CCN2CCc3cccc(C(=O)O)c32)cc(-c2ccc3c(c2)[C@H](N)CO3)c1 — what was its IC50?
220

Need IC50 of CC(C)c1cc(-c2ccc3c(c2)[C@H](N)CO3)cc(C(O)CN2CCc3cccc(C(=O)O)c32)c1 (mixture of isomers) , thanks.
170

What IC50 value was documented for this compound, CC(C)c1cc(CCOc2ccccc2C(=O)O)cc(-c2ccc3c(c2)[C@H](N)CO3)c1 ?
1190

Fill in: IC50 of CC(C)c1cc(CCOc2c(Cl)cccc2C(=O)O)cc(-c2ccc3c(c2)[C@H](N)CO3)c1 is ___
5490

* * *

- PROTOCOL: Terminal half life in C57BL/6 mouse at 0.4 mg/kg, iv bolus injection or 3 mg/kg, po by LC-MS/MS analysis
- Format: ADME, organism-based
- REPORTED CONDITIONS: in vivo, read-out: beta t1/2 (converted)
Listing of entries alongside the reported half-life.
Your answer is read as h, so omit the unit and give the number.

[
  {
    "MOL": "CC(C)c1cc(-c2ccc3c(c2)[C@H](N)CO3)cc([C@H](O)Cn2ccc3cccc(C(=O)O)c32)c1",
    "TEST RESULT": 3.73
  }
]

May I ask what half-life has been recorded for CC(C)c1cc(CCN2CCc3cccc(C(=O)O)c32)cc(-c2ccc3c(c2)[C@H](N)CO3)c1 ?
9.2

* * *

- PROTOCOL: Volume of distribution at steady state in Sprague-Dawley rat at 1 mg/kg, iv administered as bolus dose by HPLC-MS/MS analysis
- Assay type: ADME, organism-based
- REPORTED CONDITIONS: in vivo, read-out: Vdss
READOUT KIND: Vd (L/kg)
Numbers only here, please. The scale is L/kg.

Suppose we examine the compound CC(C)c1cc(-c2ccc3c(c2)[C@H](N)CO3)cc([C@H](O)Cn2ccc3cccc(C(=O)O)c32)c1 ; what Vd value has been reported?
1.3

* * *

- TARGET SYSTEM: Coagulation factor XI (Homo sapiens, UniProt P03951)
- Sequence (P03951 19-387 limits assumed): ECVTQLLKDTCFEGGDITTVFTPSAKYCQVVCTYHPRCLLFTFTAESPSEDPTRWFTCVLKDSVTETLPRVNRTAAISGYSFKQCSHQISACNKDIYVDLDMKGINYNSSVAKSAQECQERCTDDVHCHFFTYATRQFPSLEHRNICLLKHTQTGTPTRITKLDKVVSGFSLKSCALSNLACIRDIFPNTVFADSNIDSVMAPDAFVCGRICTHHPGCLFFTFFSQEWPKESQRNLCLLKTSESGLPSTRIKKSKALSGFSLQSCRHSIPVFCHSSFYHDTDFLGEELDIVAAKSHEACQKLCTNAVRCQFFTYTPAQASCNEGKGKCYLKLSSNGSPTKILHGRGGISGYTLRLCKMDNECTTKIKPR
- Sequence (P03951 388-625 limits assumed): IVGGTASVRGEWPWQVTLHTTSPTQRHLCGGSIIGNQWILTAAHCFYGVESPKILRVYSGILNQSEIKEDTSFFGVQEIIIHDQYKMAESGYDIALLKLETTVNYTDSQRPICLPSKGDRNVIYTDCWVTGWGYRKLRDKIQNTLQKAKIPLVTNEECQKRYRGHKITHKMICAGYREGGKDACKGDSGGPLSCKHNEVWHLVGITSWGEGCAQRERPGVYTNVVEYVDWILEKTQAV
- PROTOCOL: Inhibition of human F11a using D-Leu-Pro-Arg*Rh110-D-Pro as substrate preincubated for 60 mins followed by substrate addition and measured after 60 mins by fluorescence assay
A collection of compounds and their measured IC50
The reply should be a number in nM, with the unit left off.

Would you please look over these solved cases?
[
  {
    "MOL": "CC(C)c1cc(CCOc2ccccc2C(=O)O)cc(-c2ccc3c(c2)[C@H](N)CO3)c1",
    "TEST RESULT": 12
  },
  {
    "MOL": "CC(C)c1cc(CCN2CCc3cccc(C(=O)O)c32)cc(-c2ccc3c(c2)[C@H](N)CO3)c1",
    "TEST RESULT": 6
  },
  {
    "MOL": "Cc1cccc(C(=O)O)c1OCCc1cc(-c2ccc3c(c2)[C@H](N)CO3)cc(C(C)C)c1",
    "TEST RESULT": 17
  },
  {
    "MOL": "CC(C)c1cc(CCNc2ccccc2C(=O)O)cc(-c2ccc3c(c2)[C@H](N)CO3)c1",
    "TEST RESULT": 2520
  }
]

Continue with the compound presented below.
Look up IC50 for this compound: CC(C)(O)c1cc(COc2ccccc2CC(=O)O)cc(-c2ccc3c(c2)CNCC3)c1
100

* * *

- PROTOCOL: Oral bioavailability in beagle dog at 10 mg/kg via gavage by HPLC-MS/MS analysis
- Assay type: ADME, organism-based, Canis lupus familiaris
- REPORTED CONDITIONS: in vivo
READOUT KIND: bioavailability (%)
Kindly provide the numeric value in % only, without the unit symbol.

Which bioavailability value is on record for CC(C)c1cc(-c2ccc3c(c2)[C@H](N)CO3)cc([C@H](O)Cn2ccc3cccc(C(=O)O)c32)c1 ?
5

* * *

- TARGET SYSTEM: Urokinase-type plasminogen activator (Homo sapiens, UniProt P00749)
- Assay type: single protein
# reported IC50; entries follow
Numeric only. Scale: nM

[
  {
    "MOL": "CC(C)c1cc(COc2ccccc2CC(=O)O)cc(-c2ccc3c(c2)[C@H](N)CO3)c1",
    "IC50 [nM]": 47
  },
  {
    "MOL": "CC(C)c1cc(-c2ccc3c(c2)[C@H](N)CO3)cc([C@H](O)Cn2ccc3cccc(C(=O)O)c32)c1",
    "IC50 [nM]": 170
  }
]

Need IC50, item CC(C)c1cc(CCN2CCc3cccc(C(=O)O)c32)cc(-c2ccc3c(c2)[C@H](N)CO3)c1
520

* * *

Coagulation factor X (Homo sapiens, UniProt P00742) measurements of IC50, listed per entry.
Sequence (P00742 41-179 limits assumed): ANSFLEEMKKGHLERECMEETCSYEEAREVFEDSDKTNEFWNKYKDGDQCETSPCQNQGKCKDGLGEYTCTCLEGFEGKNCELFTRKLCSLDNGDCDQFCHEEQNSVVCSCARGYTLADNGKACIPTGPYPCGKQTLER
Sequence (P00742 235-488 limits assumed): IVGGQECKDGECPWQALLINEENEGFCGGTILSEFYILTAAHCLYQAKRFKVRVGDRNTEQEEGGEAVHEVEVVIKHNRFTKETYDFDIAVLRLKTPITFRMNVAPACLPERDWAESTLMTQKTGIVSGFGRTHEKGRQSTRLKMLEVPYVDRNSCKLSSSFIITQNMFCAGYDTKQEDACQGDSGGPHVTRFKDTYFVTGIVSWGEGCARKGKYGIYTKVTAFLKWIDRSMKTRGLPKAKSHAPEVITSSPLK
# output: bare number, implied unit µM

Please review the following examples before continuing.
[
  {
    "COMPOUND": "CC(C)c1cc(-c2ccc3c(c2)[C@H](N)CO3)cc(C(O)Cn2ccc3cccc(C(=O)O)c32)c1 (mixture of isomers)",
    "READOUT KIND": "IC50",
    "TEST RESULT": 11.2
  },
  {
    "COMPOUND": "CC(C)c1cc(CCOc2c(Cl)cccc2C(=O)O)cc(-c2ccc3c(c2)[C@H](N)CO3)c1",
    "READOUT KIND": "IC50",
    "TEST RESULT": 11.1
  }
]

For Coagulation factor X (Homo sapiens, UniProt P00742), provide IC50 of CC(C)c1cc(COc2ccccc2CC(=O)O)cc(-c2ccc3c(c2)[C@H](N)CO3)c1 please.
0.5

What is its IC50 for Coagulation factor X (Homo sapiens, UniProt P00742)? Entry: CC1(C)COc2c(COc3ccccc3CC(=O)O)cc(-c3ccc4c(c3)[C@H](N)CO4)cc21
0.84

Form entry - test system: Coagulation factor X (Homo sapiens, UniProt P00742); read-out: IC50; compound: Cc1cccc(C(=O)O)c1OCCc1cc(-c2ccc3c(c2)[C@H](N)CO3)cc(C(C)C)c1
12.5

* * *

- TARGET SYSTEM: Synaptic vesicular amine transporter (Homo sapiens)
- Sequence (Q05940 whole entry): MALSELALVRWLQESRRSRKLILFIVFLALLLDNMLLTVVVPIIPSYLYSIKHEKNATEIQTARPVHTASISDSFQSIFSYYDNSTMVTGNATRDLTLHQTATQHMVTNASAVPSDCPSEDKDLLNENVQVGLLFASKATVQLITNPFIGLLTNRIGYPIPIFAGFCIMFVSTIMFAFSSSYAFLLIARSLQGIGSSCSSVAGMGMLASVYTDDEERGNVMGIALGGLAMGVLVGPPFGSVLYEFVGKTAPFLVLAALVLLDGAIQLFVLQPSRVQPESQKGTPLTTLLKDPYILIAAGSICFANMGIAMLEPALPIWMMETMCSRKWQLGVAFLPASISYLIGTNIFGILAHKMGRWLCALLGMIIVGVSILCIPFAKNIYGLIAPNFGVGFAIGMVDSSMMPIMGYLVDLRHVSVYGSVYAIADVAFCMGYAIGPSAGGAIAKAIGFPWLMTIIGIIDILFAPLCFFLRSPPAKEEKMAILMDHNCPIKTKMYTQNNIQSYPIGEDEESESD
READOUT KIND: pIC50
pIC50 (log units): -log10 of the concentration in mol/L.

Recorded pIC50 for CC(C)c1cc(COc2ccccc2CC(=O)O)cc(-c2ccc3c(c2)[C@H](N)CO3)c1 with Synaptic vesicular amine transporter (Homo sapiens), please?
5.28

* * *

- PROTOCOL: in vitro
- REPORTED CONDITIONS: human, Caco-2
READOUT KIND: Papp B→A (×10⁻⁶ cm/s)
Please state the figure in ×10⁻⁶ cm/s; there is no need to write the unit.

Recorded Papp B→A, per entry:
[
  {
    "MOL": "CC(C)(O)c1cc(COc2ccccc2CC(=O)O)cc(-c2ccc3c(c2)[C@H](N)CO3)c1",
    "READOUT KIND": "Papp B→A",
    "UNIT LABEL": "×10⁻⁶ cm/s",
    "TEST RESULT": 19
  },
  {
    "MOL": "CC(C)(C(N)=O)c1cc(COc2ccccc2CC(=O)O)cc(-c2ccc3c(c2)[C@H](N)CO3)c1",
    "READOUT KIND": "Papp B→A",
    "UNIT LABEL": "×10⁻⁶ cm/s",
    "TEST RESULT": 4
  },
  {
    "MOL": "CC(C)(C#N)c1cc(COc2ccccc2CC(=O)O)cc(-c2ccc3c(c2)[C@H](N)CO3)c1",
    "READOUT KIND": "Papp B→A",
    "UNIT LABEL": "×10⁻⁶ cm/s",
    "TEST RESULT": 41
  }
]

Field: next compound
Which Papp B→A value belongs to CC1(C)COc2c(COc3ccccc3CC(=O)O)cc(-c3ccc4c(c3)[C@H](N)CO4)cc21 ?
12
